Target: Calcium/calmodulin-dependent protein kinase type 1 (Homo sapiens, UniProt Q14012)
Sequence (Q14012 whole entry): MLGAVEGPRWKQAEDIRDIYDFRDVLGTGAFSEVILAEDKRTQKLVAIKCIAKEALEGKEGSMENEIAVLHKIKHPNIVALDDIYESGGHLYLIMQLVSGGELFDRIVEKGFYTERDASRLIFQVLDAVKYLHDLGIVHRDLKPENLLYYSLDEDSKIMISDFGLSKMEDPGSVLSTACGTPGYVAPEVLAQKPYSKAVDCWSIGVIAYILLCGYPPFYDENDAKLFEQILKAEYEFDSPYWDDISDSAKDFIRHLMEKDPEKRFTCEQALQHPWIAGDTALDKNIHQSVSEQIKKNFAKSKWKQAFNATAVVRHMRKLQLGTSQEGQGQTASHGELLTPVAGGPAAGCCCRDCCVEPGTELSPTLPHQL
Assay: Binding affinity to CAMK1 (unknown origin)
property_measured: Kd
Write the numeric value and follow it with the unit.

Data request: Name the recorded Kd for CS(=O)(=O)CCCOc1cccc2c1ccn2-c1ccnc(N[C@H]2CC[C@H](C(=O)N3CCC(O)CC3)CC2)n1 .
Data returned: 4.3 µM

* * *

# inhibition listing for each entry below
Target: MAP/microtubule affinity-regulating kinase 4 (Homo sapiens)
Assay: Competitive binding affinity to MARK4 (unknown origin) at 10 uM in presence of ATP relative to control

Example results:
{"columns": ["structure", "inhibition"],
 "data": [
  ["O[C@H]1CC[C@H](Nc2nccc(-n3ncc4ccccc43)n2)CC1", "< 50%"],
  ["O[C@H]1CC[C@H](Nc2nccc(-n3ccc4ccccc43)n2)CC1", "< 50%"]
]}

Data request: Name the recorded inhibition for O[C@H]1CC[C@H](Nc2nccc(-c3n[nH]c4ccccc34)n2)CC1 .
Data returned: 67%

Data request: Param item: O[C@H]1CC[C@H](Nc2nccc(-n3nnc4ccccc43)n2)CC1
Data returned: < 50%

* * *

Molecular target: Dual specificity mitogen-activated protein kinase kinase 6 (Homo sapiens) (UniProt P52564)
Sequence (P52564 whole entry): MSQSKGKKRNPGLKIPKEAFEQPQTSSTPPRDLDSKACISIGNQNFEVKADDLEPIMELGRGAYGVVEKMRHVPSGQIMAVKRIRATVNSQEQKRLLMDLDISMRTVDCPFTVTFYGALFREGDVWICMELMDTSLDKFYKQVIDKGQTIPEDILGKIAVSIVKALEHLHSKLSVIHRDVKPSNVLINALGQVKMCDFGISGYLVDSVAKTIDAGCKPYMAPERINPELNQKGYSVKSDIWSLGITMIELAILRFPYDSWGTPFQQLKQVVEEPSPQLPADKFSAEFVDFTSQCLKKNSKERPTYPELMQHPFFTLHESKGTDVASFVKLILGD
Assay: Competitive binding affinity to MEK6 (unknown origin) at 10 uM in presence of ATP relative to control
property_measured: inhibition

{"columns": ["structure", "result"],
 "data": [
  ["O[C@H]1CC[C@H](Nc2nccc(-n3ccc4ccccc43)n2)CC1", "90%"]
]}

Data request: Name the recorded inhibition for O[C@H]1CC[C@H](Nc2nccc(-n3nnc4ccccc43)n2)CC1 .
Data returned: 96%

Data request: Param item: O[C@H]1CC[C@H](Nc2nccc(-n3ncc4ccccc43)n2)CC1
Data returned: 90%

Data request: Param item: CS(=O)(=O)CCCOc1cccc2c1ccn2-c1ccnc(N[C@H]2CC[C@H](C(=O)N3CCC(O)CC3)CC2)n1
Data returned: > 85%

* * *

Target: Serine/threonine-protein kinase PAK 6 (Homo sapiens) (UniProt Q9NQU5)
Sequence (Q9NQU5 whole entry, looked up): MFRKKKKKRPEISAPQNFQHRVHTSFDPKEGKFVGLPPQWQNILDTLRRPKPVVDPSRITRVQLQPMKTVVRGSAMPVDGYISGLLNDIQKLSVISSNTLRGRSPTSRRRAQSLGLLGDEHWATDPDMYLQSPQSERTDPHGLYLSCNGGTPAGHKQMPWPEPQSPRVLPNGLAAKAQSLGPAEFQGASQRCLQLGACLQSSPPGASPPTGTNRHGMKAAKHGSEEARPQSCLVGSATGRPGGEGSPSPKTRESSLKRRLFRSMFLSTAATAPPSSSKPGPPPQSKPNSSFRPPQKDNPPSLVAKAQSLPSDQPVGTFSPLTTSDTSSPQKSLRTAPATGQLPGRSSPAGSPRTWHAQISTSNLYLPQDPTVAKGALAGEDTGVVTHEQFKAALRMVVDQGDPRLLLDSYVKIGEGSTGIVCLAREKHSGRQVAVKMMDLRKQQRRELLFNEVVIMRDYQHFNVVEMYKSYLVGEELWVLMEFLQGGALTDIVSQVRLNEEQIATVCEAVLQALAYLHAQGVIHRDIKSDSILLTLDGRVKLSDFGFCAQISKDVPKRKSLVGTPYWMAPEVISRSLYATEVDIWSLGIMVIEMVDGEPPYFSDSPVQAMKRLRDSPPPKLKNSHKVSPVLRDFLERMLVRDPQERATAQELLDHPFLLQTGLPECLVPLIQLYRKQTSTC
Assay: Competitive binding affinity to PAK6 (unknown origin) at 10 uM in presence of ATP relative to control
property_measured: inhibition

Example results:
{"columns": ["structure", "inhibition"],
 "data": [
  ["O=C([C@H]1CC[C@H](Nc2nccc(-n3nnc4ccccc43)n2)CC1)N1CCOCC1", "< 50%"],
  ["O[C@H]1CC[C@H](Nc2nccc(-n3nnc4ccccc43)n2)CC1", "< 50%"],
  ["O[C@H]1CC[C@H](Nc2nccc(-n3ccc4ccccc43)n2)CC1", "< 50%"],
  ["N[C@H]1CC[C@H](Nc2nccc(-n3nnc4ccccc43)n2)CC1", "< 50%"],
  ["O[C@H]1CC[C@H](Nc2nccc(-c3n[nH]c4ccccc34)n2)CC1", "86%"]
]}

Moving on to another compound below.
Data request: Name the recorded inhibition for O[C@H]1CC[C@H](Nc2nccc(-n3ncc4ccccc43)n2)CC1 .
Data returned: < 50%

* * *

Molecular target: Ephrin type-A receptor 6 (Homo sapiens) (UniProt Q9UF33)
Sequence (Q9UF33 whole entry): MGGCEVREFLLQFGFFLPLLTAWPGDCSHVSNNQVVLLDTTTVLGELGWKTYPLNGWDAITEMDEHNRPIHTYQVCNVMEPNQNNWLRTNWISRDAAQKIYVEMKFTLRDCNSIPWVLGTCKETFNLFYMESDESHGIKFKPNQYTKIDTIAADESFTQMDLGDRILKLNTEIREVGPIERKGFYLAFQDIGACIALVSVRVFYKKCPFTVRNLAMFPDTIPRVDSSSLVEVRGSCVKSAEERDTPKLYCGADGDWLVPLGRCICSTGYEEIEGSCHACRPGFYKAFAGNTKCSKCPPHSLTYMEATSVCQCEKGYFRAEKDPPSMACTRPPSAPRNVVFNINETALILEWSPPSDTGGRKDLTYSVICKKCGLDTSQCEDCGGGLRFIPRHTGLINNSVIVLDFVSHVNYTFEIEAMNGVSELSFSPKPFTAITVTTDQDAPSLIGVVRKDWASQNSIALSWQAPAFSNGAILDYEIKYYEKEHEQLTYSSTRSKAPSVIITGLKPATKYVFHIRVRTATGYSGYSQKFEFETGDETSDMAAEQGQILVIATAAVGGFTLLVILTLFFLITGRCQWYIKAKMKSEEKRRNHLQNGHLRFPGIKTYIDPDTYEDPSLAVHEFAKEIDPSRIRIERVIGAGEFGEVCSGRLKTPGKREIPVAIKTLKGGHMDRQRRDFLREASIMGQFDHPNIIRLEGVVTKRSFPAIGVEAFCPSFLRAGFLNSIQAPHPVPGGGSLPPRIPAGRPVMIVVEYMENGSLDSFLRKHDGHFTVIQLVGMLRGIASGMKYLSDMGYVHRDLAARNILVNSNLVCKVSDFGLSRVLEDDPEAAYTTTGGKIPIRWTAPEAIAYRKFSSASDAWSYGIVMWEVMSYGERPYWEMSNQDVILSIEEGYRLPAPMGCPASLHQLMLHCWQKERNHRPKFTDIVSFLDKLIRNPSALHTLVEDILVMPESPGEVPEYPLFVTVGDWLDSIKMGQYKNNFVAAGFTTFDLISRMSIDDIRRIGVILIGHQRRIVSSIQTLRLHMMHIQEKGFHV
Test: Competitive binding affinity to EPHA6 (unknown origin) at 10 uM in presence of ATP relative to control
property_measured: inhibition

Example results:
{"columns": ["structure", "result"],
 "data": [
  ["O[C@H]1CC[C@H](Nc2nccc(-n3ncc4ccccc43)n2)CC1", "< 50%"],
  ["O[C@H]1CC[C@H](Nc2nccc(-n3ccc4ccccc43)n2)CC1", "< 50%"],
  ["O=C([C@H]1CC[C@H](Nc2nccc(-n3nnc4ccccc43)n2)CC1)N1CCOCC1", "< 50%"],
  ["N[C@H]1CC[C@H](Nc2nccc(-n3nnc4ccccc43)n2)CC1", "< 50%"],
  ["O[C@H]1CC[C@H](Nc2nccc(-n3nnc4ccccc43)n2)CC1", "< 50%"]
]}

Moving on to another compound below.
Data request: Name the recorded inhibition for O[C@H]1CC[C@H](Nc2nccc(-c3n[nH]c4ccccc34)n2)CC1 .
Data returned: < 50%
